Biological target: human LTA4 hydrolase (Homo sapiens)
Assay: LTA4H Enzyme assay (cleavage of Arg-AMC, fluorescence)
Format: biochemical
Conditions: LTA4H Enzyme 1 nM, Arg-AMC substrate 50 μM, room temperature 1 h, fluorescence; read-out: IC50 values of LTA4H Enzyme assay
pIC50: −log10 of the molar value.
Given measured pIC50, output 1 (yes) if it is greater than or equal to 9 and 0 (no) if not.

Reference set, count: 5
{"MOLECULE": "CC(C)(O)CNC(=O)[C@H]1[C@@H]2CN(Cc3ccc([C@H]4COc5cccnc5O4)cc3)C[C@@H]21", "TARGET_OR_SYSTEM": "human LTA4 hydrolase (Homo sapiens)", "CLASS_NAME": "1 (yes)"}
{"MOLECULE": "O=C(O)C[C@H]1CCCN(Cc2ccc([C@H]3COc4ccccc4O3)cc2)C1", "TARGET_OR_SYSTEM": "human LTA4 hydrolase (Homo sapiens)", "CLASS_NAME": "1 (yes)"}
{"MOLECULE": "O=C1CN(Cc2ccc([C@H]3COc4ccccc4O3)cc2)CN1", "TARGET_OR_SYSTEM": "human LTA4 hydrolase (Homo sapiens)", "CLASS_NAME": "0 (no)"}
{"MOLECULE": "CS(=O)(=O)C1CCN(Cc2ccc([C@H]3COc4cccnc4O3)cc2)CC1", "TARGET_OR_SYSTEM": "human LTA4 hydrolase (Homo sapiens)", "CLASS_NAME": "1 (yes)"}
{"MOLECULE": "CN(Cc1ccc([C@H]2COc3cccnc3O2)cc1)C1CCN(S(C)(=O)=O)CC1", "TARGET_OR_SYSTEM": "human LTA4 hydrolase (Homo sapiens)", "CLASS_NAME": "1 (yes)"}

Has `O=C(O)c1ccc(C2CN(Cc3ccc([C@H]4COc5ccccc5O4)cc3)C2)cc1` a recorded pIC50 greater than or equal to 9? 1 (yes)

Check this molecule for pIC50 at or above 9: `O=C1OCCCN1C1CCN(Cc2ccc([C@H]3COc4cccnc4O3)cc2)CC1` 1 (yes)

Tell me whether pIC50 is at least 9 here: c1ccc2c(c1)OC[C@@H](c1ccc(CN3CCCC3)cc1)O2 (single isomer, unassigned) 0 (no)

* * *

Parameter IC50: see the listing below.
Target: human LTA4 hydrolase (Homo sapiens)
Assay: LTA4H Enzyme assay (cleavage of Arg-AMC, fluorescence)
Assay type: biochemical
Conditions: LTA4H Enzyme 1 nM, Arg-AMC substrate 50 μM, room temperature 1 h, fluorescence; read-out: IC50 values of LTA4H Enzyme assay
Description: The compounds of the invention are assessed for the ability to interact with human LTA4 hydrolase in an enzymatic assay that measures the ability of the enzyme to cleave the peptide bond of arginyl-aminomethylcoumarin (Arg-AMC). […] The formation of product is assessed by measuring the fluorescence of aminomethylcoumarin product (excitation wavelength 380 nm/emission wavelength 460 nm).
The reply should be a number in nM, with the unit left off.

{"COMPOUND": "O[C@@H]1CCN(Cc2ccc([C@H]3COc4ccccc4O3)cc2)C1", "TARGET_OR_SYSTEM": "human LTA4 hydrolase (Homo sapiens)", "IC50 [nM]": 0.54}

# context switch: different compound, same IC50
Request - read-out IC50 | tested on human LTA4 hydrolase (Homo sapiens) | compound O[C@@H]1CCN(Cc2ccc(C3COc4ccccc4O3)cc2)C1 (mixture of isomers) 1.89

* * *

The following compounds are shown together with reported IC50 values.
Target: UniProtKB P09960
Test: LTA4H Enzyme assay (cleavage of Arg-AMC, fluorescence)
Type: biochemical
Settings: LTA4H Enzyme 1 nM, Arg-AMC substrate 50 μM, room temperature 1 h, fluorescence; read-out: IC50 values of LTA4H Enzyme assay
Record the value in nM, omitting the unit from your answer.

# count of solved cases: 5
{"COMPOUND": "NC(=O)NC1CCN(Cc2ccc(C3COc4ccccc4O3)cc2)CC1 (racemic)", "TARGET_OR_SYSTEM": "UniProtKB P09960", "READOUT_VALUE": 0.42}
{"COMPOUND": "O=C1NCCC12CCN(Cc1ccc([C@H]3COc4cccnc4O3)cc1)CC2", "TARGET_OR_SYSTEM": "UniProtKB P09960", "READOUT_VALUE": 0.16}
{"COMPOUND": "O=C(CO)N1C[C@@H]2CC[C@H]1CN2Cc1ccc([C@H]2COc3cccnc3O2)cc1", "TARGET_OR_SYSTEM": "UniProtKB P09960", "READOUT_VALUE": 0.17}
{"COMPOUND": "CS(=O)(=O)N1CCC(NCc2ccc([C@H]3COc4cccnc4O3)cc2)CC1", "TARGET_OR_SYSTEM": "UniProtKB P09960", "READOUT_VALUE": 0.27}
{"COMPOUND": "CC1CCN(Cc2ccc([C@H]3COc4cccnc4O3)cc2)CC1", "TARGET_OR_SYSTEM": "UniProtKB P09960", "READOUT_VALUE": 0.26}

If you can, please state the reported IC50 value of `CC(=O)NCCC(=O)N1CCN(Cc2ccc([C@H]3COc4cccnc4O3)cc2)CC1` . 0.88

Bench note: what IC50 did `O=C1CCCCN1C1CCN(Cc2ccc([C@H]3COc4ccccc4O3)cc2)CC1` show? 0.45

Name the recorded IC50 for `OC1(c2ccccc2)CCN(Cc2ccc([C@H]3COc4cccnc4O3)cc2)CC1` . 0.2

* * *

Target: human LTA4 hydrolase (Homo sapiens, UniProt P09960)
Sequence (P09960 whole entry): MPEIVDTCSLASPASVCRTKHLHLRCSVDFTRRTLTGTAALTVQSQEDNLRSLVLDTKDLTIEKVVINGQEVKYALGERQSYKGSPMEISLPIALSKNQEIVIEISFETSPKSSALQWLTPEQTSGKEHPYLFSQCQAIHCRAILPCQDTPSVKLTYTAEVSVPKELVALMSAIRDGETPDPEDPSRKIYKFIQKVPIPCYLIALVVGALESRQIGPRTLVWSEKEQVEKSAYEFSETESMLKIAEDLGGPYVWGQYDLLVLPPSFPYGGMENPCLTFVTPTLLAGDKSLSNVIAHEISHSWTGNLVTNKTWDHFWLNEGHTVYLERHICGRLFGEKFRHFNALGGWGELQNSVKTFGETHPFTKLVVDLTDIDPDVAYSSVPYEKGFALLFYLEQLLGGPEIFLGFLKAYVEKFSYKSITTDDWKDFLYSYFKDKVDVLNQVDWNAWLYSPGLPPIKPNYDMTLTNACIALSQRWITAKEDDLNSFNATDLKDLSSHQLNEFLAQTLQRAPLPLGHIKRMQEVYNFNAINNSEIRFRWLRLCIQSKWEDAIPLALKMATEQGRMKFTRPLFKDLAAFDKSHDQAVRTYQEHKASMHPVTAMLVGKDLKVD
Assay: LTA4H Enzyme assay (cleavage of Arg-AMC, fluorescence)
Format: biochemical
Settings: LTA4H Enzyme 1 nM, Arg-AMC substrate 50 μM, room temperature 1 h, fluorescence; read-out: IC50 values of LTA4H Enzyme assay
Lab note: cut-off is 0.6 nM. Strictly less in IC50 is 1. Exactly 0.6 nM or more is 0.

Solved cases below.
{"MOLECULE": "FC1CCN(Cc2ccc(C3COc4ccccc4O3)cc2)CC1 (racemic) [Example 5]", "CLASS_NAME": 0}
{"MOLECULE": "O=S1(=O)CCN(Cc2ccc(C3COc4cccnc4O3)cc2)CC1 (racemic) [Example 17]", "CLASS_NAME": 0}

I wonder whether CC(=O)NCC1CCN(Cc2ccc([C@H]3COc4cccnc4O3)cc2)CC1 [Example 279] has IC50 below 0.6 nM. Can you tell? 1

Does NC(=O)[C@H]1CC[C@H](NCc2ccc([C@H]3COc4ccccc4O3)cc2)CC1 [Example 66] have IC50 strictly under 0.6 nM? 0

Hello, is IC50 of the following molecule strictly smaller than 0.6 nM? CN1CCCC2(CCN(Cc3ccc([C@H]4COc5ccccc5O4)cc3)CC2)C1=O [Example 130] 1

Does CN(C)C(=O)C1CCN(Cc2ccc(C3COc4ccccc4O3)cc2)CC1 (racemic) [Example 51] have IC50 strictly under 0.6 nM? 0

Please let me know if O=C(NC[C@@H]1CCCO1)C1CCN(Cc2ccc([C@H]3COc4cccnc4O3)cc2)CC1 [Example 287] shows IC50 below 0.6 nM. 1

* * *

Tested on: synthesis of LTB4 in human whole blood
Test: human whole blood (HWB) assay, LTB4 production inhibition after calcimycin stimulation
Type: cell-based
Conditions: heparinized human whole blood, calcimycin 20 μM, plasma LTB4 by HTRF
Structures can show the parent of a compound that is named as a salt.
Let's look at some compounds and their measured pIC50.
The meaning of pIC50 here: minus log10 of the concentration in molar units.

Solved cases below.
{"COMPOUND": "O=C(CN1CCCC1=O)NC1CCN(Cc2ccc([C@H]3COc4cccnc4O3)cc2)CC1", "pIC50": 6.77}
{"COMPOUND": "CC(=O)N1CC[C@@H](NCc2ccc([C@H]3COc4ccccc4O3)cc2)C1", "pIC50": 6.80}
{"COMPOUND": "c1cnc2c(c1)OC[C@H](c1ccc(CN3CCCCCC3)cc1)O2", "pIC50": 7.89}
{"COMPOUND": "NC(=O)c1nnc2n1CCN(Cc1ccc([C@H]3COc4cccnc4O3)cc1)CC2", "pIC50": 6.89}
{"COMPOUND": "CC(C)(O)C(=O)NC1CCN(Cc2ccc([C@H]3COc4ccccc4O3)cc2)CC1", "pIC50": 7.04}
{"COMPOUND": "O=C1NCCC12CCN(Cc1ccc([C@H]3COc4cccnc4O3)cc1)CC2", "pIC50": 7.41}

GET /values?readout=pIC50&system=synthesis of LTB4 in human whole blood&item= `O=C(O)C1(c2ccccc2)CCN(Cc2ccc([C@H]3COc4cccnc4O3)cc2)CC1` 5.89

API: value(readout=pIC50, system=synthesis of LTB4 in human whole blood) for record `C[C@@H](CO)NC(=O)[C@H]1[C@@H]2CN(Cc3ccc([C@H]4COc5cccnc5O4)cc3)C[C@@H]21` 7.24

Lab note: need pIC50 for CC(C)(C(=O)O)C1CCN(Cc2ccc([C@H]3COc4ccccc4O3)cc2)CC1 [Example 229, formate salt] on synthesis of LTB4 in human whole blood, anyone have it? 6.54

For the record COC1CCCN(Cc2ccc([C@H]3COc4cccnc4O3)cc2)C1 (stereo partly shown) , what value of pIC50 is listed for synthesis of LTB4 in human whole blood? 7.55

What pIC50 appears in the records for this compound with synthesis of LTB4 in human whole blood? `CC(=O)N1CCN(Cc2ccc([C@H]3COc4cccnc4O3)cc2)CC1` 7.04

Give pIC50 (synthesis of LTB4 in human whole blood) of the following compound: `NC(=O)c1cn2c(n1)CN(Cc1ccc([C@H]3COc4cccnc4O3)cc1)CC2` 7.00

Form: Entry = `N#CCN1CCN(Cc2ccc([C@H]3COc4cccnc4O3)cc2)CC1` | System = synthesis of LTB4 in human whole blood | pIC50 = ____ 6.54

Please provide the recorded pIC50 for CC(c1ccc([C@H]2COc3ccccc3O2)cc1)N1CCC(C(=O)O)CC1 (stereo partly shown) , tested on synthesis of LTB4 in human whole blood. 6.51

Lookup: pIC50 / synthesis of LTB4 in human whole blood / `CN(Cc1ccc([C@H]2COc3cccnc3O2)cc1)C1CCCC1` 7.62

Form field - read-out: pIC50; system: synthesis of LTB4 in human whole blood; submitted item: `N#Cc1cnc2n1CCN(Cc1ccc([C@H]3COc4cccnc4O3)cc1)C2` 7.24
